target: PARG (Homo sapiens, UniProt Q86W56); assay: Inhibition of PARG cellular assay (PAR foci in HeLa cells after MMS); format: cell-based; design: endogenous in cells; host or cells: HeLa; details: compound 1 h then MMS 1 h;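 note: IC50 from mean nuclear PAR foci intensity not percent-positive cells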
Sequence (Q86W56 whole entry): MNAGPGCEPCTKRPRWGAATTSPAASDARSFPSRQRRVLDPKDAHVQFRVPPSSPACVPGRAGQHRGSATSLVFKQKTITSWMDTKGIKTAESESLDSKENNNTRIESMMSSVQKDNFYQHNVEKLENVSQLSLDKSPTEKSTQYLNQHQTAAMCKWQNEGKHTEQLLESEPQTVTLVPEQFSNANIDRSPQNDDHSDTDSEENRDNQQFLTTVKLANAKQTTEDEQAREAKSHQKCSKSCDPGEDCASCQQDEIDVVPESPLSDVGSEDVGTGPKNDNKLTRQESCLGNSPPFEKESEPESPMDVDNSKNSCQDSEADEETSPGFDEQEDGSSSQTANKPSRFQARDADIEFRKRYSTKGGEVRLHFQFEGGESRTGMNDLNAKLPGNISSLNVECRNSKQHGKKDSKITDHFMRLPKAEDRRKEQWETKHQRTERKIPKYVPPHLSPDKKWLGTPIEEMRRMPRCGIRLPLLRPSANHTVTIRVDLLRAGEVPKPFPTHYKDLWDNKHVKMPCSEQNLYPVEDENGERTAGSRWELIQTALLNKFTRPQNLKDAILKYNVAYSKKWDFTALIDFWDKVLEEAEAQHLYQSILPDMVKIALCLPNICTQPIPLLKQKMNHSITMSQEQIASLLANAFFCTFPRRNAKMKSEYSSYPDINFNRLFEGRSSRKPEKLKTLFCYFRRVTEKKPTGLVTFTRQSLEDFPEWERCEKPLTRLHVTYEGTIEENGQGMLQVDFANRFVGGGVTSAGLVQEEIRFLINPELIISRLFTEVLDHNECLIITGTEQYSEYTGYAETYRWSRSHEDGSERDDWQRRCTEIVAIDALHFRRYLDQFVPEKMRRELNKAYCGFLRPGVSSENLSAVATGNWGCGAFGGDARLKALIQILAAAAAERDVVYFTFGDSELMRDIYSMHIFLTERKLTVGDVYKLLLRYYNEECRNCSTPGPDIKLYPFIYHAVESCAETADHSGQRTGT
pIC50: −log10 of the molar value.
Recorded pIC50 by entry

[[record]]
compound = "COc1cc(-c2cc(S(=O)(=O)NC3(C(N)=O)CC3)cc3c2cnn3-c2nnc(C(F)F)s2)ncn1"
val = "5.00 to 6.00"

[[record]]
compound = "N#CC1(NS(=O)(=O)c2cc(-c3c[nH]cn3)c3cnn(-c4nnc(C(F)F)s4)c3c2)CC1"
val = "5.00 to 6.00"

[[record]]
compound = "N#CC1(NS(=O)(=O)c2cc(N3CCC4(CCCO4)CC3)c3cnn(-c4nnc(C(F)F)s4)c3c2)CC1"
val = "5.00 to 6.00"

[[record]]
compound = "N#CC1(NS(=O)(=O)c2cc(N3CCN(C(=O)c4ccccn4)CC3)c3cnn(-c4nnc(C(F)F)s4)c3c2)CC1"
val = "≥ 7.00"

[[record]]
compound = "C[C@@H]1CN(c2cc(S(=O)(=O)NC3(C#N)CC3)cc3c2cnn3-c2nnc(C(F)F)s2)CCO1"
val = "6.52 to 7.00"


Bench note, PARG (Homo sapiens, UniProt Q86W56): entry N#CC1(NS(=O)(=O)c2cc(-c3ccccn3)c3cnn(-c4nnc(C(F)F)s4)c3c2)CC1 , its pIC50 = 5.00 to 6.00

Log: PARG (Homo sapiens, UniProt Q86W56), compound N#CC1(NS(=O)(=O)c2cc(N3CCN(C(=O)c4ccccc4)CC3)c3cnn(-c4nnc(C(F)F)s4)c3c2)CC1 , pIC50 = ≥ 7.00

Summary: N#CC1(NS(=O)(=O)c2cc(N3CCC(F)(F)CC3)c3cnn(-c4nnc(C(F)F)s4)c3c2)CC1 , PARG (Homo sapiens, UniProt Q86W56), pIC50 = 6.00 to 6.52

Fill in: PARG (Homo sapiens, UniProt Q86W56) pIC50 for N#CC1(NS(=O)(=O)c2cc(C3CCC4(CC3)COC4)c3cnn(-c4nnc(C(F)F)s4)c3c2)CC1 = ≥ 7.00

Summary line: N#CC1(NS(=O)(=O)c2cc(N3C[C@H]4COC[C@H]4C3)c3cnn(-c4nnc(C(F)F)s4)c3c2)CC1 , PARG (Homo sapiens, UniProt Q86W56), reported pIC50 = 6.00 to 6.52

Param item: CC(=O)N1CCN(c2cc(S(=O)(=O)NC3(C#N)CC3)cc3c2cnn3-c2nnc(C(F)F)s2)CC1 ; param system: PARG (Homo sapiens, UniProt Q86W56); output pIC50: 6.00 to 6.52

Fill in: PARG (Homo sapiens, UniProt Q86W56) pIC50 for N#CC1(NS(=O)(=O)c2cc(N3CCN(C(=O)N4CCC4)CC3)c3cnn(-c4nnc(C(F)F)s4)c3c2)CC1 = ≥ 7.00

pIC50 of CCN(C)C(=O)N1CCN(c2cc(S(=O)(=O)NC3(C#N)CC3)cc3c2cnn3-c2nnc(C(F)F)s2)CC1 , assay on PARG (Homo sapiens, UniProt Q86W56), is ≥ 7.00

Measured pIC50 (PARG (Homo sapiens, UniProt Q86W56)), entry CC1(NS(=O)(=O)c2cc(N3CCC4(CC3)COC4)c3cnn(-c4nnc(C(F)F)s4)c3c2)CC1 : ≥ 7.00

Kindly note: PARG (Homo sapiens, UniProt Q86W56), CN1CCC(C(=O)N2CCN(c3cc(S(=O)(=O)NC4(C#N)CC4)cc4c3cnn4-c3nnc(C(F)F)s3)CC2)CC1 , pIC50 value reported: 5.00 to 6.00

Entry N#CC1(NS(=O)(=O)c2cc(N3CCS(=O)(=O)CC3)c3cnn(-c4nnc(C(F)F)s4)c3c2)CC1 under PARG (Homo sapiens, UniProt Q86W56) had pIC50 of 6.00 to 6.52

# lookup: C[C@H]1CN(c2cc(S(=O)(=O)NC3(C#N)CC3)cc3c2cnn3-c2nnc(C(F)F)s2)CCN1C(=O)N(C)C on PARG (Homo sapiens, UniProt Q86W56), pIC50 = ≥ 7.00
